attribute measured: glass transition temperature

> print(dat)
                                   molecule  measurement
1  *CC(*)(C)C(=O)OCCCCCCOc1ccc(/C=N/c2ccc(C#N)cc2)cc1 (repeat unit)     35.00 °C
2  *c1ccc(-c2ccc(N3C(=O)c4ccc(-c5cccc6c5C(=O)N(*)C6=O)cc4C3=O)cc2C(F)(F)F)c(C(F)(F)F)c1 (repeat unit)    346.00 °C
3  *CC(*)(C)C(=O)NC(=O)Oc1ccc(S(=O)(=O)c2ccc(O)cc2)cc1 (repeat unit)    182.00 °C
4  *Oc1ccc(CC(NC(=O)CCc2ccc(OC(=O)CCCC(*)=O)cc2)C(=O)OCC(C)C)cc1 (repeat unit)     62.00 °C
5  *c1ccc(Oc2ccc(C(c3ccc(Oc4ccc(-c5nnc(*)n5-c5ccc(S(C)(=O)=O)cc5)cc4)cc3)(C(F)(F)F)C(F)(F)F)cc2)cc1 (repeat unit)    226.00 °C
6  *c1cccc(N2C(=O)c3cccc(Oc4ccc(C(C)(C)c5ccc(Oc6cccc7c6C(=O)N(*)C7=O)cc5)cc4)c3C2=O)c1 (repeat unit)    227.50 °C

###

attribute measured: glass transition temperature (°C)

> print(dat)
                                    compound            attribute.measured  measurement
 1  *O[Si](C)(C)O[Si](C)(C)O[Si](C)(C)O[Si](C)(C)C#Cc1ccc(C#C[Si](*)(C)C)cc1 (repeat unit)  glass transition temperature        84.00
 2           *OC1CCCCC1OC(*)=O (repeat unit)  glass transition temperature       117.30
 3  *c1ccc(-c2ccc(-c3ccc(-c4ccc(*)n4CCCCCCCCCCCC)s3)s2)s1 (repeat unit)  glass transition temperature        52.00
 4     *CC(*)c1ccccc1C(=O)OCCC (repeat unit)  glass transition temperature       108.00
 5  *c1ccc(Cc2ccc(N3C(=O)C4CCC5C(=O)N(*)C(=O)C5C4C3=O)c(C)c2)cc1C (repeat unit)  glass transition temperature       340.00
 6  *C1C(=O)OC(=O)C1C1C2CC(C(=O)OC3CCCCC3)C(C2)C1* (repeat unit)  glass transition temperature       195.00
 7       *C1CC2CC1C(*)C2CCCCCC (repeat unit)  glass transition temperature       252.00
 8  *CC#CCOC(=O)NCCCCCCNC(=O)O* (repeat unit)  glass transition temperature       -45.00
 9  *OC(=O)C1CCC(C(=O)OC2COC3C(*)COC23)CC1 (repeat unit)  glass transition temperature       121.00
10  *c1ccc(*)c(C(=O)c2ccc(C)cc2)c1 (repeat unit)  glass transition temperature       202.00

###

Recorded glass transition temperature by entry
attribute measured: glass transition temperature (°C)

compound	measurement
*Oc1ccc(Oc2ccc(C(=O)c3cccc(NC(=O)c4cccc(C(=O)Nc5cccc(C(=O)c6ccc(*)cc6)c5)c4)c3)cc2)cc1 (repeat unit)	202.00
*Oc1ccc(S(=O)(=O)c2ccc(Oc3ccc(C(C)(C)c4ccc(*)cc4)cc3)cc2)c(N)c1 (repeat unit)	202.00
*c1cc(C(c2ccc(OCCN(CC)c3ccc(/C=C/C4=CC(=C(C#N)C#N)CC(C)(C)C4)cc3)c(N3C(=O)c4ccc(Oc5ccc6c(c5)C(=O)N(*)C6=O)cc4C3=O)c2)(C(F)(F)F)C(F)(F)F)ccc1OCCN(CC)c1ccc(/C=C/C2=CC(=C(C#N)C#N)CC(C)(C)C2)cc1 (repeat unit)	202.00

Origin of measurements: the PolyMetriX glass transition set
